molecular target: IRE1α (Homo sapiens); construct: purchased Signal Chem E31-11G; assay: Biochemical assay to detect inhibition of kinase activity of IRE1α (ADP-Glo)
endpoint label: IC50 (nM)

Please review the following examples before continuing.
{"columns": ["molecule", "measured on", "IC50, nM"],
 "data": [
  ["CCn1nc(-c2ccc(NS(=O)(=O)Cc3ccccc3F)c(F)c2)c2c(N)ncc([C@H]3CC[C@H](NC4COC4)CC3)c21", "IRE1α (Homo sapiens)", 1.9],
  ["CC(C)n1nc(-c2ccc(NS(=O)(=O)Cc3ccccc3Cl)c(F)c2)c2c(N)ncc([C@H]3CC[C@H](N(C)C)CC3)c21", "IRE1α (Homo sapiens)", 2.7]
]}

(1) CCn1nc(-c2cc(F)c(NS(=O)(=O)Cc3ccccc3F)cc2F)c2c(N)ncc([C@H]3CC[C@H](NC4COC4)CC3)c21
(2) CCn1nc(-c2cc(F)c(NS(=O)(=O)c3ccccc3F)cc2F)c2c(N)ncc([C@H]3CC[C@H](NC4COC4)CC3)c21
Which value of IC50 is greater, the one for 1 or the one for 2 ? Mark your selection by writing its label.
2
(2: 6.5 nM, 1: 3.2 nM)

---

molecular target: IRE1α (Homo sapiens, UniProt O75460); construct: purchased Signal Chem E31-11G; assay: Biochemical assay: inhibition of RNase activity of IRE1α; settings: enzyme 0.325 nM, substrate 100 nM, 20 minutes
Sequence (O75460 468-977 limits assumed): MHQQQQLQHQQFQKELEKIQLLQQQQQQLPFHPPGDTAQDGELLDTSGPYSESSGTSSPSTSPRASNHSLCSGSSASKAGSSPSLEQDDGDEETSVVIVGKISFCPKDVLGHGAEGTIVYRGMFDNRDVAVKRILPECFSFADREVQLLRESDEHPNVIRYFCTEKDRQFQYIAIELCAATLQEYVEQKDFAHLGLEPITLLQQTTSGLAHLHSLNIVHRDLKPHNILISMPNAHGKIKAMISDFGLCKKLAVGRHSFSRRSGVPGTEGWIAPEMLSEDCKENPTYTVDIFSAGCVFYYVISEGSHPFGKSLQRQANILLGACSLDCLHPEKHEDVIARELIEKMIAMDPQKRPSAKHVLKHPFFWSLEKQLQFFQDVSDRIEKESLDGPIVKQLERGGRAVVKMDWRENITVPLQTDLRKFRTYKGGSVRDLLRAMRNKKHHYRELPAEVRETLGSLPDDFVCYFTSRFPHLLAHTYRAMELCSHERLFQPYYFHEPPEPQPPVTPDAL
pIC50: −log10 of the molar value.
endpoint label: pIC50

Answered cases to consult:
{"columns": ["compound", "measured on", "endpoint label", "reported result"],
 "data": [
  ["COCCN[C@H]1CC[C@H](c2cnc(N)c3c(-c4cc(F)c(NS(=O)(=O)c5cc(OC(F)F)ccc5F)cc4F)nn(C(C)C)c32)CC1", "IRE1α (Homo sapiens, UniProt O75460)", "pIC50", 8.72],
  ["COCCN[C@H]1CC[C@H](c2cnc(N)c3c(-c4cc(F)c(NS(=O)(=O)c5ccc(F)cc5F)cc4F)nn(C(C)C)c32)CC1", "IRE1α (Homo sapiens, UniProt O75460)", "pIC50", 8.27],
  ["CCn1nc(-c2ccc(NS(=O)(=O)c3cc(C)ccc3F)c(F)c2)c2c(N)ncc(C3=CCC(NC4COC4)CC3)c21 (single isomer, unassigned) [Compound B36]", "IRE1α (Homo sapiens, UniProt O75460)", "pIC50", 7.29],
  ["CC(CF)NC1CC=C(c2cnc(N)c3c(-c4ccc(NS(=O)(=O)c5ccccc5Cl)c(F)c4)nn(C(C)C)c23)CC1 (single isomer, unassigned) [Compound B41]", "IRE1α (Homo sapiens, UniProt O75460)", "pIC50", 8.21],
  ["CCn1nc(-c2ccc(NS(=O)(=O)c3ccccc3Cl)c(F)c2)c2c(N)ncc(C3=CCC(NC4COC4)CC3)c21 (single isomer, unassigned) [Compound B62]", "IRE1α (Homo sapiens, UniProt O75460)", "pIC50", 7.12],
  ["Nc1ncc([C@H]2CC[C@H](NC3COC3)CC2)c2c1c(-c1ccc(NS(=O)(=O)Cc3ccccc3F)c(F)c1)nn2C1CC1", "IRE1α (Homo sapiens, UniProt O75460)", "pIC50", 9.05]
]}

(a) CC(C)n1nc(-c2ccc(NS(=O)(=O)c3ccccc3F)c(F)c2)c2c(N)ncc(C3=CCC(NC4COC4)CC3)c21 (racemic) [racemic mixture of B58 & B59]
(b) CC(C)n1nc(-c2ccc(NS(=O)(=O)c3ccccc3Cl)c(F)c2)c2c(N)ncc([C@H]3CC[C@H](NC4COC4)CC3)c21
When the recorded pIC50 values are compared, which is smaller: that of a or that of b ? Your choice should be expressed through its label.
a
(a: 7.21, b: 8.46)

---

target: IRE1α (Homo sapiens, UniProt O75460); construct: purchased Signal Chem E31-11G; assay: Biochemical assay: inhibition of RNase activity of IRE1α; conditions: enzyme 0.325 nM, substrate 100 nM, 20 minutes
endpoint label: IC50 (nM)

{"columns": ["compound", "reported result"],
 "data": [
  ["CC(C)n1nc(-c2cc(F)c(NS(=O)(=O)c3ccccc3Cl)cc2F)c2c(N)ncc([C@H]3CC[C@H](NC4COC4)CC3)c21 [Compound A49]", 6],
  ["CC(C)n1nc(-c2ccc(NS(=O)(=O)c3cc(Cl)ccc3F)c(F)c2)c2c(N)ncc(C3=CCC(NC4COC4)CC3)c21 (racemic) [racemic mixture of B14 & B15]", 60],
  ["CCn1nc(-c2ccc(NS(=O)(=O)c3cc(OC)ccc3Cl)c(F)c2)c2c(N)ncc(C3=CCC(NC4COC4)CC3)c21 (stereo not drawn) [Compound B37]", 20],
  ["COCCN(CCOC)[C@H]1CC[C@H](c2cnc(N)c3c(-c4cc(F)c(NS(=O)(=O)c5cccc(C(F)(F)F)c5)cc4F)nn(C(C)C)c32)CC1 [Compound A29]", 32],
  ["CC(C)n1nc(-c2ccc(NS(=O)(=O)c3ccccc3Cl)c(F)c2)c2c(N)ncc(C3=CCC(NC4CC(F)(F)C4)CC3)c21 (single isomer, unassigned) [Compound B51]", 31]
]}

(I) CCn1nc(-c2ccc(NS(=O)(=O)c3ccccc3Cl)c(F)c2)c2c(N)ncc([C@H]3CC[C@H](NC4COC4)CC3)c21 [Compound A52]
(II) COCC(C)N[C@H]1CC[C@H](c2cnc(N)c3c(-c4ccc(NS(=O)(=O)Cc5ccccc5Cl)c(F)c4)nn(C(C)C)c32)CC1 (stereo partly drawn) [Compound A58]
Could you tell me which of I and II has the lower IC50 reading? Mark your selection by writing its label.
II
(II: 0.6 nM, I: 6.1 nM)

(a) CC(C)n1nc(-c2cc(F)c(NS(=O)(=O)Cc3ccccc3F)cc2F)c2c(N)ncc([C@H]3CC[C@H](N(C)C)CC3)c21 [Compound A22]
(b) COCCN[C@H]1CC[C@H](c2cnc(N)c3c(-c4ccc(NS(=O)(=O)c5ccccc5F)c(F)c4)nn(C(C)C)c32)CC1 [Compound A6]
(c) CCn1nc(-c2cc(F)c(NS(=O)(=O)Cc3ccccc3Cl)cc2F)c2c(N)ncc(C3=CCC(NC4COC4)CC3)c21 (stereo not drawn) [Compound B32]
(d) COCCN[C@H]1CC[C@H](c2cnc(N)c3c(-c4cc(F)c(NS(=O)(=O)Cc5ccccc5Cl)cc4F)nn(C(C)C)c32)CC1 [Compound A20]
Hey, can you sort those compounds up there by IC50, smallest first? Lab note: final answer is the ordered label list.
d, a, b, c
(d: 1.2 nM, a: 1.8 nM, b: 2.6 nM, c: 21 nM)

---

target: IRE1α (Homo sapiens); construct: purchased Signal Chem E31-11G; assay: Biochemical assay: inhibition of RNase activity of IRE1α; conditions: enzyme 0.325 nM, substrate 100 nM, 20 minutes
endpoint label: IC50 (nM)

{"columns": ["compound", "IC50, nM"],
 "data": [
  ["Nc1ncc(C2=CCC(NC3COC3)CC2)c2c1c(-c1ccc(NS(=O)(=O)Cc3ccccc3Cl)c(F)c1)nn2C1CC1 (single isomer, unassigned) [Compound B23]", 3.1],
  ["COCCN[C@H]1CC[C@H](c2cnc(N)c3c(-c4cc(F)c(NS(=O)(=O)c5cccc(OC)c5)cc4F)nn(C(C)C)c32)CC1", 8.9],
  ["COCCN[C@H]1CC[C@H](c2cnc(N)c3c(-c4cc(F)c(NS(=O)(=O)c5cc(OC)ccc5F)cc4F)nn(C(C)C)c32)CC1", 2.9]
]}

(P) CC(C)n1nc(-c2ccc(NS(=O)(=O)c3ccccc3F)c(F)c2)c2c(N)ncc(C3=CCC(NC4COC4)CC3)c21 (single isomer, unassigned) [Compound B58]
(Q) COCCN[C@H]1CC[C@H](c2cnc(N)c3c(-c4cc(F)c(NS(=O)(=O)c5c(F)cccc5F)cc4F)nn(C(C)C)c32)CC1
Returns: the label, P or Q , whose recorded IC50 is the lower number. Write down the label of the entry you select.
Q
(Q: 9.7 nM, P: 120 nM)

---

target: IRE1α (Homo sapiens, UniProt O75460); construct: purchased Signal Chem E31-11G; assay: Biochemical assay: inhibition of RNase activity of IRE1α; conditions: enzyme 0.325 nM, substrate 100 nM, 20 minutes
endpoint label: IC50 (nM)

Below: 2 compounds and their reported IC50.
{"columns": ["compound", "unit annotation", "IC50"],
 "data": [
  ["COCCN[C@H]1CC[C@H](c2cnc(N)c3c(-c4cc(F)c(NS(=O)(=O)c5cccc(C(F)(F)F)c5)cc4F)nn(C(C)C)c32)CC1 [Compound A30]", "nM", 3.8],
  ["CC(C)n1nc(-c2ccc(NS(=O)(=O)c3ccccc3Cl)c(F)c2)c2c(N)ncc(C3=CCC(NCCF)CC3)c21 (stereo not drawn) [Compound B63]", "nM", 16]
]}

(a) COCCNC1CC=C(c2cnc(N)c3c(-c4ccc(NS(=O)(=O)c5ccccc5Cl)c(F)c4)nn(C(C)C)c23)CC1 (single isomer, unassigned) [Compound B53]
(b) COCCN[C@H]1CC[C@H](c2cnc(N)c3c(-c4cc(F)c(NS(=O)(=O)c5cc(C#N)ccc5F)cc4F)nn(C(C)C)c32)CC1 [Compound A21]
(c) COCCN[C@H]1CC[C@H](c2cnc(N)c3c(-c4cc(F)c(NS(=O)(=O)c5cc(Cl)ccc5F)cc4F)nn(C(C)C)c32)CC1 [Compound A4]
(d) CCn1nc(-c2ccc(NS(=O)(=O)Cc3ccccc3Cl)cc2)c2c(N)ncc(C3=CCC(NC4COC4)CC3)c21 (single isomer, unassigned) [Compound B24]
rank_up(items): orders items by reported IC50 in ascending numerical order. # list labels per requested ordering
c, b, a, d
(c: 1.3 nM, b: 4.7 nM, a: 17 nM, d: 53 nM)
